// provenance: PubChem BioAssay AID1863

Exercise: state measured IC50 for each of the compounds provided.
Tested on: S. Typhimurium PhoP-regulated promoter GFP reporter, 4 h
Experiment: inhibitors of PhoP regulon expression, primary screen, Salmonella Typhimurium, GFP reporter (AID 1863)

Req: Could you tell me which IC50 is on file for "NC1=NC[C@H](Cc2ccc(O)cc2)N1CCCCC1CCCCC1" ?
Resp: 57.2 µM

Req: Could you tell me which IC50 is on file for O=C(NC(CO)Cc1ccc([N+](=O)[O-])cc1)C(Cl)Cl (stereo unspecified) ?
Resp: 9.97 µM

Req: Could you tell me which IC50 is on file for CCCCCCCCNC(C)C(O)c1ccc(SC(C)C)cc1 (stereo unspecified) ?
Resp: 75.2 µM

Req: Could you tell me which IC50 is on file for "Cc1scc(C(=O)N/N=C/c2ccc([N+](=O)[O-])o2)c1C" ?
Resp: 110 µM

Req: Could you tell me which IC50 is on file for OC(c1cc(-c2ccc(C(F)(F)F)cc2)nc(C(F)(F)F)c1)C1CCCCN1 (stereo unspecified) ?
Resp: 38.1 µM

Req: Could you tell me which IC50 is on file for "Cc1ccc(Nc2nc(NCc3ccco3)c3ccccc3n2)cc1" ?
Resp: 44.1 µM

Req: Could you tell me which IC50 is on file for "CCn1cc(C(=O)O)c(=O)c2cc(F)c(N3CCN(C(=S)NC(=O)c4ccc(F)cc4)CC3)cc21" ?
Resp: 46.5 µM

Req: Could you tell me which IC50 is on file for "CCn1cc(C(=O)O)c(=O)c2cc(F)c(N3CCN(S(=O)(=O)c4ccc(NC(C)=O)cc4)CC3)cc21" ?
Resp: 135 µM

Req: Could you tell me which IC50 is on file for "Nc1cccc2nc3ccccc3cc12" ?
Resp: 58.2 µM

Req: Could you tell me which IC50 is on file for "O=C(N/N=C/c1coc2ccc(Cl)cc2c1=O)c1cc(O)cc(O)c1" ?
Resp: 69.1 µM

Req: Could you tell me which IC50 is on file for "CCn1cc(C(=O)O)c(=O)c2cc3c(cc21)OCO3" ?
Resp: 43 µM

Req: Could you tell me which IC50 is on file for "Cc1sc2ncnc(N/N=C/c3ccccc3O)c2c1C" ?
Resp: 82.2 µM

Req: Could you tell me which IC50 is on file for "Cc1[nH]n(-c2ccccc2)c(=O)c1/C=N/Nc1nncc(-c2ccccc2)n1" ?
Resp: 29.5 µM

Req: Could you tell me which IC50 is on file for "COC(=O)c1c(NC(=O)c2ccc([N+](=O)[O-])o2)sc2c1CCN(C(C)C)C2" ?
Resp: 56.3 µM

Req: Could you tell me which IC50 is on file for NC1CCN(c2c(F)cc3c(=O)c(C(=O)O)cn(C4CC4)c3c2Cl)C1 (stereo unspecified) ?
Resp: < 0.23 µM

Req: Could you tell me which IC50 is on file for "Cc1ccccc1NC(=O)CCC(=O)N/N=C/c1cc([N+](=O)[O-])ccc1O" ?
Resp: 95.7 µM

Req: Could you tell me which IC50 is on file for "O=CN/N=C/c1c(O)ccc2ccccc12" ?
Resp: 71.9 µM

Req: Could you tell me which IC50 is on file for "CCNC(=S)NNC(=O)c1ccccn1" ?
Resp: 62.6 µM

Req: Could you tell me which IC50 is on file for "C[C@H]1COc2c(N3CCN(C)CC3)c(F)cc3c(=O)c(C(=O)O)cn1c23" ?
Resp: < 0.23 µM

Req: Could you tell me which IC50 is on file for COC1C(OC(=O)c2ccc(C)[nH]2)C(O)C(Oc2ccc3c(O)c(NC(=O)c4ccc(O)c(CC=C(C)C)c4)c(=O)oc3c2Cl)OC1(C)C (stereo unspecified) ?
Resp: 11.8 µM

Req: Could you tell me which IC50 is on file for CN(C)c1ccc(O)c2c1CC1CC3C(N(C)C)C(=O)C(C(N)=O)=C(O)[C@@]3(O)C(=O)C1=C2O (stereo partly specified) ?
Resp: 9.35 µM
